target: MERTK (UniProt Q12866); assay: phosphorylation enrichment, bacterial display (enrichment ratio); higher = better substrate or ligand; peptides without Tyr show the background;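 also: 11-residue human phosphosite peptides and single-mutation variants displayed on the E. coli surface, counted by deep sequencing, each peptide's frequency after selection divided by its frequency in the unselected input library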;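 also: frequency after pTyr selection over input frequency; kinase dosed for 20-30% of maximal phosphorylation in three min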
Sequence (Q12866 whole entry, looked up): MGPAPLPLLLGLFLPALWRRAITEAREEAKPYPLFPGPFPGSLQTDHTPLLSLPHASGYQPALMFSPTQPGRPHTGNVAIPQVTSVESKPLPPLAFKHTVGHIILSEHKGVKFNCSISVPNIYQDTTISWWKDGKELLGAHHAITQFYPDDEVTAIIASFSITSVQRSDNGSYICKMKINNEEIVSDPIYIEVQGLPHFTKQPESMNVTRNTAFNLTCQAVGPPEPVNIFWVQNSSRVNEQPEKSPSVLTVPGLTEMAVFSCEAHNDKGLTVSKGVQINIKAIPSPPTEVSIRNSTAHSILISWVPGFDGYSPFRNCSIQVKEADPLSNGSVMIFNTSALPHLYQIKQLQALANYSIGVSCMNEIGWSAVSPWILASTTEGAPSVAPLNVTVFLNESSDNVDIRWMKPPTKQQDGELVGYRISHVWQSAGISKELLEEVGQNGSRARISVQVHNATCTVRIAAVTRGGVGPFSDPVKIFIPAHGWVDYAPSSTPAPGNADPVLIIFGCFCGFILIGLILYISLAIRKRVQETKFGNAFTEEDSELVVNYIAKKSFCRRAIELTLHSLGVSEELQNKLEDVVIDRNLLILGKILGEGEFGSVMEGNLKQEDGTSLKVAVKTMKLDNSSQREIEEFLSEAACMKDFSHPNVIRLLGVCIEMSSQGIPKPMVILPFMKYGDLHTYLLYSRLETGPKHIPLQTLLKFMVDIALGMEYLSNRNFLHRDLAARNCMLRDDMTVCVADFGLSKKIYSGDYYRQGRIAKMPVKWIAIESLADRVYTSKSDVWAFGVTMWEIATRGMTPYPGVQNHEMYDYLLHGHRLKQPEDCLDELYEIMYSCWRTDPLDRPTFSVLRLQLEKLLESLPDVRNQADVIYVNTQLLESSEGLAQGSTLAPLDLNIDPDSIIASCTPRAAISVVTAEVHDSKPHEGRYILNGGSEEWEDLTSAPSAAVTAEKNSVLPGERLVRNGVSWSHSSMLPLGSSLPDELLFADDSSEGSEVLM
Observed Property: phosphorylation enrichment
Please state the value as a number alone, without comment.

Examples with their reported phosphorylation enrichment follow.
FSIDHYLGKEM [G6PD_Y202_R198S_YF]
0.421
KVGNEYITKGQ [MYH7_Y410_V411I]
0.356
TTKAKYKTPTY [PLD2_Y573]
0.362
NVADHYGVYKP [ATP6V0D2_Y271]
0.356
FTGDIYSSSNL [LZTR1_Y141_N143S_YF]
1.7
TRTEAYAVSSF
0.406

The sequence listed as PQGVRYIYTID [DCX_Y103] shows phosphorylation enrichment equal to 0.856

The sequence listed as EYKDAYTFAAD [BRDT_Y335_K336T] shows phosphorylation enrichment equal to 0.51
